solubility at 24 h, 200 µM values by entry
assay.comment: Solubility of the compound in FaSSIF at pH 7 at 200 uM incubated for 24 hrs by UV-vis detection based HPLC analysis
Assay type: physicochemical
Number only, in µM; omit the unit.

cpd.smiles	quantity.name	result.number
Cc1ncnc2c1ccn2[C@@H]1C[C@@H]2[C@H](Cc3ccc4cc(Cl)c(N)nc4c3)CC[C@]2(O)[C@H]1O	solubility at 24 h, 200 µM	22
Nc1nc2cc(C[C@@H]3CC[C@@]4(O)[C@@H]3O[C@@H](n3ccc5c(N)ncnc53)[C@@H]4O)c(F)cc2cc1F	solubility at 24 h, 200 µM	110
Cc1ncnc2c1ccn2[C@@H]1O[C@@H]2[C@H](Cc3ccc4cc(F)c(N)nc4c3)CC[C@]2(O)[C@H]1O	solubility at 24 h, 200 µM	118

Okay, next one:
compound Nc1nc2cc(C[C@@H]3CC[C@@]4(O)[C@@H]3O[C@@H](n3cc(F)c5c(N)ncnc53)[C@@H]4O)ccc2cc1F , solubility at 24 h, 200 µM observed: 114

###

study.target: Protein arginine N-methyltransferase 5 (Homo sapiens, UniProt O14744)
Sequence (O14744 whole entry): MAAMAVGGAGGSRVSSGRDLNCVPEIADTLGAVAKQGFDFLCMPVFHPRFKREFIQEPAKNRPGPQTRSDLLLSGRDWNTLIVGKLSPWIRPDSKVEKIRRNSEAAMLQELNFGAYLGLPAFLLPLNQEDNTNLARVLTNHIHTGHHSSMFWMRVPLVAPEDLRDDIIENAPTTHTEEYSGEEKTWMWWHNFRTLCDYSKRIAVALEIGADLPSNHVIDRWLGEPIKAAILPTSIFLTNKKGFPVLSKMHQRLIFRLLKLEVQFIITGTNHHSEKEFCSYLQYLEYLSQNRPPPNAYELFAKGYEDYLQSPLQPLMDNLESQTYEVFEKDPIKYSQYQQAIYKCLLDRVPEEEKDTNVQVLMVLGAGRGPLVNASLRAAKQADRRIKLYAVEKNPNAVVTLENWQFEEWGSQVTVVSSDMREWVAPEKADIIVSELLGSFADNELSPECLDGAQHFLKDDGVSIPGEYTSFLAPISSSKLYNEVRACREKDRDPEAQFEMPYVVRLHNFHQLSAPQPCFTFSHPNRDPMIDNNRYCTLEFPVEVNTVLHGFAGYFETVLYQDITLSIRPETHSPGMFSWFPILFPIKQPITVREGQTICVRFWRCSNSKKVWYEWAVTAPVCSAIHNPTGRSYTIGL
assay.comment: Inhibition of PRMT5 (unknown origin) assessed as inhibition of symmetric dimethylation of arginine incubated for 3 days by fluorescence based cellular target engagement assay
quantity.name: pEC50
Keep in mind that pEC50 stands for -log10 of concentration in molar terms.

cpd.smiles	result.number
Cc1ncnc2c1ccn2[C@@H]1C[C@@H]2[C@H](Cc3ccc4cc(Cl)c(N)nc4c3)CC[C@]2(O)[C@H]1O	9.06
Cc1nc(N)c2ccn([C@@H]3C[C@@H]4[C@H](Cc5ccc6cc(F)c(N)nc6c5)CC[C@]4(O)[C@H]3O)c2n1	8.82
Nc1nc2cc(O[C@H]3CC[C@@]4(O)[C@@H]3O[C@@H](n3ccc5c(N)ncnc53)[C@@H]4O)ccc2cc1Cl	8.92
Nc1nc2cc(C[C@@H]3CC[C@@]4(O)[C@@H]3O[C@@H](n3ccc5c(N)ncnc53)[C@@H]4O)ccc2cc1Cl	8.92
Cc1ncnc2c1ccn2[C@@H]1O[C@@H]2[C@@H](Oc3ccc4cc(F)c(N)nc4c3)CC[C@]2(O)[C@H]1O	7.42
Nc1nc2cc(O[C@H]3CC[C@@]4(O)[C@@H]3O[C@@H](n3ccc5cncnc53)[C@@H]4O)ccc2cc1Br	7.49

compound Cc1ncnc2c1ccn2[C@@H]1C[C@@H]2[C@@H](Cc3ccc4cc(F)c(N)nc4c3)CC[C@]2(O)[C@H]1O , pEC50 observed: 7.96

###

study.target: Protein arginine N-methyltransferase 5 (Homo sapiens, UniProt O14744)
assay.comment: Inhibition of PRMT5 (unknown origin) assessed as inhibition of symmetric dimethylation of arginine incubated for 3 days by fluorescence based cellular target engagement assay
quantity.name: EC50 (nM)
Number only, in nM; omit the unit.

Below: 2 molecules and their reported EC50.
cpd.smiles	unit.abbreviation	result.number
Nc1nc2cc(C[C@@H]3CC[C@@]4(O)[C@@H]3O[C@@H](n3ccc5c(C6CC6)ncnc53)[C@@H]4O)ccc2cc1Br	nM	5.3
Cc1ncnc2c1ccn2[C@@H]1C[C@@H]2[C@H](Cc3ccc4cc(Br)c(N)nc4c3)CC[C@]2(O)[C@H]1O	nM	1.1

Okay, next one:
molecule Cc1cn([C@@H]2C[C@@H]3[C@H](Cc4ccc5cc(F)c(N)nc5c4)CC[C@]3(O)[C@H]2O)c2ncnc(N)c12 , EC50 observed: 0.97
